Test system: OVCAR-3 ovarian
PROTOCOL DESCRIPTION: NCI tumour cell line growth inhibition, 48 h
PROPERTY LABEL: TGI

Qu. Specify TGI for CCC(C)C(C(=O)N/N=C1/SCC(=O)N1c1ccccc1)C(=O)N/N=C1/SCC(=O)N1c1ccccc1 (stereo unspecified) , system OVCAR-3 ovarian.
Ans. > 100 µM

Qu. Specify TGI for Cc1cc(C)nc(NS(=O)(=O)c2ccc(Nc3c4ccccc4nc4c(C(=O)NNCCO)cccc34)cc2)n1 , system OVCAR-3 ovarian.
Ans. > 100 µM

Qu. Specify TGI for O=C(Nc1cccc2ccccc12)Nn1cnnc1 , system OVCAR-3 ovarian.
Ans. > 100 µM

Qu. Specify TGI for O=c1c(C=Nc2ccccc2Cl)c(O)n(-c2ccccc2)c(=O)n1-c1ccccc1 , system OVCAR-3 ovarian.
Ans. > 100 µM

Qu. Specify TGI for COC1CC(C)C(OC)C2=CC(=O)C=C(NC(=O)/C(C)=C/C=C\C(C)C(OC(N)=O)/C(C)=C\C(C)C1OC)C2=O (stereo unspecified) , system OVCAR-3 ovarian.
Ans. 1.48 µM

Qu. Specify TGI for CC(C)=CCCC(C)c1ccc(C)c2c1OCN(CC1CCNCC1)C2 (stereo unspecified) , system OVCAR-3 ovarian.
Ans. 31.1 µM

Qu. Specify TGI for CC12CCC3[C@@H](CC3(C)C)C(O)(CCC1=O)C2 (stereo partly specified) , system OVCAR-3 ovarian.
Ans. > 100 µM

Qu. Specify TGI for CC(=O)O[C@H]1CC[C@H]2[C@@H]3CCC4C(C)=NNC(=O)C4[C@H]3CC[C@]12C (stereo partly specified) , system OVCAR-3 ovarian.
Ans. > 100 µM

Qu. Specify TGI for Cc1ccc(-n2cnc3c(N)nc(N)nc32)cc1 , system OVCAR-3 ovarian.
Ans. > 100 µM

Qu. Specify TGI for CC1(C)C2CCC3=C(CCC4(C)C5C[C@](C)(C(=O)O)CC[C@]5(C)CC[C@]34C)[C@@]2(C)CC[C@@H]1O (stereo partly specified) , system OVCAR-3 ovarian.
Ans. 29.8 µM

Qu. Specify TGI for CC(=O)Nc1ccc(C(=O)NN2C(=O)C(Cl)C2c2ccc(Cl)cc2)cc1 (stereo unspecified) , system OVCAR-3 ovarian.
Ans. 52.3 µM

Qu. Specify TGI for CC/C(C)=C1\CCC(CN2CCOCC2)C1=O (stereo unspecified) , system OVCAR-3 ovarian.
Ans. 29.5 µM

Qu. Specify TGI for COc1ccc(OC)c2sc(N3C(=O)/C(=C/c4ccc(Cl)cc4)N=C3c3ccccc3)nc12 , system OVCAR-3 ovarian.
Ans. > 100 µM

Qu. Specify TGI for OC1(CCc2ccccc2)COC(C(F)(F)F)(C(F)(F)F)C1 (stereo unspecified) , system OVCAR-3 ovarian.
Ans. > 100 µM

Qu. Specify TGI for COc1ccc2nc3c([N+](=O)[O-])ccc4c3c(c2c1)N=CN4CCCN(C)C , system OVCAR-3 ovarian.
Ans. 20.2 µM

Qu. Specify TGI for CC1(C)CN=C(c2ccc3c(c2)Cc2cc(C4=NCC(C)(C)N4)ccc2-3)N1 , system OVCAR-3 ovarian.
Ans. > 100 µM

Source of measurements: PubChem BioAssay (NCI)
